# System under test: human sphingosine-1-phosphate receptor 1 (S1P1) (Homo sapiens (Human))
# Sequence (P21453 whole entry, looked up): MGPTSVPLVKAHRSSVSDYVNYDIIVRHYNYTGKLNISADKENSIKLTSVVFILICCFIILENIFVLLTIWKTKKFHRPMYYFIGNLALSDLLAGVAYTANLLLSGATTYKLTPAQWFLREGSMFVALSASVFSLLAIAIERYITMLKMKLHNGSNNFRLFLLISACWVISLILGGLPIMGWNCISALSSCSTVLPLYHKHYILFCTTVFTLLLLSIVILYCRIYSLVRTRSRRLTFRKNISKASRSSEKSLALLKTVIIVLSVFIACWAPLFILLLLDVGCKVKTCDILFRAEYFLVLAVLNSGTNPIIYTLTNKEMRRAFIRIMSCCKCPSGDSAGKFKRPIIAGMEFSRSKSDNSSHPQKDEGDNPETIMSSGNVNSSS
# Sequence (P32121 whole entry partner, looked up): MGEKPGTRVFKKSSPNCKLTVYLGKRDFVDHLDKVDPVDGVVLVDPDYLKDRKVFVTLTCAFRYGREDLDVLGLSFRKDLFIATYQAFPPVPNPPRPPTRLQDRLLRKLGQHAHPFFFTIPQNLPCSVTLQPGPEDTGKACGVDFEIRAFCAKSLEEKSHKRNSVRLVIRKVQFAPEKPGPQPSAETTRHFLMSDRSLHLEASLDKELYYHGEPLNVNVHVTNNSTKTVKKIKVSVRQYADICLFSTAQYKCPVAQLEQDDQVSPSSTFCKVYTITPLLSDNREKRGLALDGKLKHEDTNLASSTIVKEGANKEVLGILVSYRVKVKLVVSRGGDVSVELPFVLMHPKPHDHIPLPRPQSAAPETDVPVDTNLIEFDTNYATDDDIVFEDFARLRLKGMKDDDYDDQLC
# Procedure text: β-Arrestin2 recruitment assay (PathHunter), S1P1 CHO-K1 cells
# Format: cell-based
# Measurement conditions: β-arrestin2 recruitment, S1P1 CHO-K1 cells
Quantity: hS1P1 B-arrestin2 pEC50

The following molecules have reported results that may help.
Asked: Using human sphingosine-1-phosphate receptor 1 (S1P1) (Homo sapiens (Human)) as the test system, report measured hS1P1 B-arrestin2 pEC50 of `CCC1(CC)CC(=O)c2cc(-c3nnc(-c4ccccc4OC)s3)ccc2O1` .
Given back: >5

Asked: Using human sphingosine-1-phosphate receptor 1 (S1P1) (Homo sapiens (Human)) as the test system, report measured hS1P1 B-arrestin2 pEC50 of `CC(C)Nc1ccc(-c2nnc(-c3ccc4c(c3)ncn4C)o2)cc1C#N` .
Given back: <5

Asked: Using human sphingosine-1-phosphate receptor 1 (S1P1) (Homo sapiens (Human)) as the test system, report measured hS1P1 B-arrestin2 pEC50 of `O=C(O)CCn1nnc2cc(-c3noc(-c4ccccc4Br)n3)ccc21` .
Given back: <5

Asked: Using human sphingosine-1-phosphate receptor 1 (S1P1) (Homo sapiens (Human)) as the test system, report measured hS1P1 B-arrestin2 pEC50 of `CCC1(CC)CC(=O)c2cc(-c3nc(-c4cncc(O)c4)no3)ccc2O1` .
Given back: >5

Asked: Using human sphingosine-1-phosphate receptor 1 (S1P1) (Homo sapiens (Human)) as the test system, report measured hS1P1 B-arrestin2 pEC50 of `Cc1cncc(-c2nc(-c3ccc4c(c3)nnn4C(C)C)no2)c1` .
Given back: <5

***
Asked: Using human sphingosine-1-phosphate receptor 1 (S1P1) (Homo sapiens (Human)) as the test system, report measured hS1P1 B-arrestin2 pEC50 of `CC(C)n1nnc2cc(C(=O)Nc3noc4ccccc34)ccc21` .
Given back: <5

Asked: Using human sphingosine-1-phosphate receptor 1 (S1P1) (Homo sapiens (Human)) as the test system, report measured hS1P1 B-arrestin2 pEC50 of `CC(C)Nc1ccc(-c2nnc(-c3ccc4c(c3)ncn4CCO)o2)cc1C#N` .
Given back: <5

Asked: Using human sphingosine-1-phosphate receptor 1 (S1P1) (Homo sapiens (Human)) as the test system, report measured hS1P1 B-arrestin2 pEC50 of `Cc1ccsc1-c1nc(-c2ccc3c(c2)nnn3C(C)(C)CO)no1` .
Given back: >5

Asked: Using human sphingosine-1-phosphate receptor 1 (S1P1) (Homo sapiens (Human)) as the test system, report measured hS1P1 B-arrestin2 pEC50 of `COc1ccc(-c2noc(-c3ccc4c(c3)nnn4C(C)C)n2)c2ccccc12` .
Given back: <5
